Listed sequences paired with reported soluble fraction (log2)
- assay: soluble fraction after stress (log2 fold change); higher = more stays soluble; pooled small domains, quantitative proteomics;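 further: 20 min heating vs room temperature control held 20 min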
- assay-context: stress: 75 degC
quantity-kind: soluble fraction (log2)

- HMQLHDTMKRVYEALDISEQKLAESLGLKLSTIINWQKNGISKIGINKLNQTFGLDMQWILTGQGEPFI: -0.0293
- HMVAESGLPPAFRSTWRHIMQTRGAQLDVLAMRTGTDAASLQKQLHAMELGGWVRRMPGGWYVPLK: -1.78
- HMTILTSSQRKALISKMIRQGGVESQSHLVKLLAREGVKVTQATASRDLEDLGATRVRDANGEFQYVIP: -1.16
- HMQSNDAGELEAVVKGIIDANPKVVADYLAGNQKVVSFFVGQAMKATKGKANPKMVSEILGKLL: -0.0975
